- ASSAY: photoluminescence quantum yield (fraction); solvent given as SMILES
- RECORDED CONDITIONS: in O=P(c1ccccc1)(c1ccccc1)c1ccccc1Oc1ccccc1P(=O)(c1ccccc1)c1ccccc1
Assign class by photoluminescence quantum yield: not lower than 0.7 means true; lower than 0.7 means false.

Exam item: Would you say O=c1c2ccccc2sc2ccc(-n3c4ccccc4c4ccccc43)cc12 shows photoluminescence quantum yield at minimum 0.7?
Marked response: false

Exam item: Then what about the molecule CC(C)(C)c1ccc2c(c1)c1cc(C(C)(C)C)ccc1n2-c1ccccc1-c1nc(-c2ccccc2-n2c3ccc(C(C)(C)C)cc3c3cc(C(C)(C)C)ccc32)nc(-c2ccccc2P(=O)(c2ccccc2)c2ccccc2)n1 ?
Marked response: false

Exam item: Same again, this time with CC(C)(C)c1ccc2c(c1)c1cc(C(C)(C)C)ccc1n2-c1ccccc1-c1nc(-c2ccccc2P(=O)(c2ccccc2)c2ccccc2)nc(-c2ccccc2P(=O)(c2ccccc2)c2ccccc2)n1
Marked response: false

Exam item: And for c1ccc(-c2nc(-c3ccccc3)nc(-c3cccc(-n4c5ccccc5c5c6oc7ccccc7c6ccc54)c3)n2)cc1 ?
Marked response: false

Exam item: Try the molecule c1ccc(-c2nc(-c3ccccc3)nc(-c3cc(-n4c5ccccc5c5ccccc54)c(-n4c5ccccc5c5ccccc54)c(-n4c5ccccc5c5ccccc54)c3)n2)cc1
Marked response: true

Exam item: Okay, and c1ccc(-c2nc(-c3ccccc3)nc(-c3ccc(-n4c5ccccc5c5cc6c(cc54)C4c5ccccc5C6c5ccccc54)cc3)n2)cc1 ?
Marked response: false

Exam item: For N#Cc1c(-n2c3ccccc3c3ccccc32)cccc1-n1c2ccccc2c2ccccc21 then?
Marked response: false

Exam item: Same thing, different molecule: N#Cc1cc(C#N)c(-n2c3ccccc3c3cc(-c4cccc5c4c4ccccc4n5-c4cc(-n5c6ccccc6c6ccccc65)c(C#N)cc4C#N)ccc32)cc1-n1c2ccccc2c2ccccc21
Marked response: false

Exam item: Subsequent entry: Cc1nnc(-c2cc(-c3nnc(C)o3)c(-n3c4ccccc4c4ccccc43)cc2-n2c3ccccc3c3ccccc32)o1
Marked response: false

Exam item: // query: c1ccc(-c2nc(-c3ccccc3)nc(-c3ccc(-n4c5ccccc5c5c6c(ccc54)-c4ccccc4C6(c4ccccc4)c4ccccc4)cc3)n2)cc1
Marked response: true

Exam item: Another molecule: CC1(C)c2ccccc2N(c2ccc(-c3nc(-c4ccccc4)cc(-c4ccccc4)n3)cc2)c2ccccc21
Marked response: false

Exam item: Repeat for the following molecule: c1ccc(-c2nc(-c3ccccc3)nc(-c3ccccc3-n3c4ccccc4c4c5oc6ccccc6c5ccc43)n2)cc1
Marked response: true

Exam item: Input N#Cc1c(-c2ccc(N(c3ccccc3)c3ccccc3)cc2)c(C#N)c(-c2ccc(N(c3ccccc3)c3ccccc3)cc2)c(C#N)c1-c1ccc(N(c2ccccc2)c2ccccc2)cc1
Marked response: true

Exam item: Now try CC1(C)c2ccccc2N(c2ccccc2)c2ccc(-c3ccc(S(=O)(=O)c4ccc(-c5ccc6c(c5)C(C)(C)c5ccccc5N6c5ccccc5)cc4)cc3)cc21 .
Marked response: true
